# key: entry, value: pKd
Target: T1, human CD47 (analyte in the Biacore assay) (human, UniProt Q08722 19-139, limits assumed)
T1 construct: also called human CD47 protein
Test: SPR (Biacore T200), antibody captured by anti-mouse Fc, human CD47 as analyte
// pKd is dimensionless: -log10 of concentration (M)

// known answers, use as guide
INPUT: Entry 059-1.100.5 (antibody, mouse IgM, V domains shown, Mouse hybridoma antibody; light chain type kappa; also called 059-1.100.5 purified antibody) VH: QVQLQQSGAELVRPGASVTLSCKASGYTFTDYEMHWVKQTPVHGLEWIGAIDPETGGTAYNQNFKGKATLTADKSSSTAYMELRSLTSEDSAVYYCTRGTPYAMDYWGQGTSVTVSS VL: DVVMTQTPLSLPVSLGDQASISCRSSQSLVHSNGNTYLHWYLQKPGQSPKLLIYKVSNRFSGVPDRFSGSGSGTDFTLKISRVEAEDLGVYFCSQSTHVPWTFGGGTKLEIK has what pKd?
OUTPUT: 7.36

INPUT: # query: pKd of entry 059-1.43.1 (antibody, mouse IgG1, V domains shown, also called 059-1.43.1 purified antibody) VH: QVQLQQSGAELVRPGASVTLSCKASGYTFTDYEMHWVKQTPVHGLEWIGAIDPETGGTAYNQKFKGKATLTADKSSSTAYMELRSLTSEDSAVYYCTRGTPYAMDYWGQGTSVTVSS VL: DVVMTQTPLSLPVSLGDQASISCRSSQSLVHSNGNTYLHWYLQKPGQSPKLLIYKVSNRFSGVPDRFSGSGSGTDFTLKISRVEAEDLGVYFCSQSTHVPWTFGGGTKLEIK
OUTPUT: 7.55

INPUT: # query: pKd of entry 059-1.30.1 (antibody, mouse IgG1, V domains shown, also called 059-1.30.1 purified antibody) VH: EVQLQQSGPELVKPGASVRMSCKASGYTFTNYVMHWVKQKPGQGLEWIGYINPYNDGTKYSEKFKGKATLTSDKSSITAYMELSSLTSEDSAVYYCAKGGLFTFDYWGQGTTLTVSS VL: DVVMTQTPLSLPVSLGDQASISCRSSQSLVHSKGNTYLHWYLQKPGQSPKLLIYRVSNRFSGVPDRFSGSGSGTDFTLKISRVEAEDLGVYFCSQSTHVPFTFGSGTKLEIK
OUTPUT: 7.52

INPUT: Sample 059-1.20.1 (antibody, mouse IgG1, V domains shown, also called 059-1.20.1 purified antibody) VH: EVQLQQSGPELVKPGASVNMSCKASGYTFTNYFLHWVKQKPGQGLEWIGYINPYNDGTNYNENFKGKATLTSDKSSSTAYMELSSLTSEDSAVYYCAKGGWFSMDYWGQGTSVTVSS VL: DVVMTQTPLSLPVSLGDQASISCRSSQSLVHSNGKTYLQWYLQKPGQSPKLLIYKVSNRFSGVPDRFSGSGSGTDFTLKISRVEAEDLGVYFCSQSTHVYTFGGGTKLEIK — what was its pKd?
OUTPUT: 7.60

More entries:
INPUT: Using the record for 059-1.82.1 (antibody, mouse IgG3, V domains shown) VH: EVQLQQSGPELVKPGASVKMSCKASGYTFTNYVMHWVKQKPGQGLEWIGYINPYNDGTNYNEKFKGKATLTSDKSSSTAYMELSSLTSEDSAVYYCAKGGWFSMDYWGQGTSVTVSS VL: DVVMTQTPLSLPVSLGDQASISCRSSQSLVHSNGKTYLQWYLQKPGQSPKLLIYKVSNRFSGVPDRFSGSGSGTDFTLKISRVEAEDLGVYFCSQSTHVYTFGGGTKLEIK , report its pKd.
OUTPUT: 7.85

INPUT: Sample 059-1.11.1 (antibody, mouse IgM, V domains shown, Mouse hybridoma antibody; the subclass paragraph gives the light chain type as kappa; also called 059-1.11.1 purified antibody) VH: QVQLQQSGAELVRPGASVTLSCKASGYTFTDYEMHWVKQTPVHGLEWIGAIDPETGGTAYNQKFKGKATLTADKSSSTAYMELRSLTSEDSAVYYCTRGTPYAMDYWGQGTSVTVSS VL: DVVMTQTPLSLPVSLGDQASISCRSSQSLVHSNGNTYLHWYLQKPGQSPKLLIYKVSNRFSGVPERFSGSGSGTDFTLKISRVEAEDLGVYFCSQSTHVPWTFGGGTKLEIK — what was its pKd?
OUTPUT: 7.81

INPUT: Could you share which pKd value was measured for B6H12 (commercialized CD47 antibody, purchased from Abcam, catalog No. ab3283) (antibody) EVQLVESGGDLVKPGGSLKLSCAASGFTFSGYGMSWVRQTPDKRLEWVATITSGGTYTYYPDSVKGRFTISRDNAKNTLYLQIDSLKSEDTAIYFCARSLAGNAMDYWGQGTSVTVSSGGGGSGGGGSGGGGSDIVMTQSPATLSVTPGDRVSLSCRASQTISDYLHWYQQKSHESPRLLIKFASQSISGIPSRFSGSGSGSDFTLSINSVEPEDVGVYYCQNGHGFPRTFGGGTKLEIK ?
OUTPUT: 7.56

INPUT: What does the record list as pKd for 059-1.51.2 (antibody, mouse IgM, V domains shown, Mouse hybridoma antibody; light chain type kappa) VH: EVQLQQSGPELVKPGASVKMSCKASGYTFTNYVMHWMKQKPGQGLEWIGYINPYNDDTKYNEKFKDRATLTSDKSSSTAYMELSSLTSEDSAVYYCAKGGYYSMDYWGQGTSVTVSS VL: DVVMTQTPLSLPVSLGDQASISCRSSQSLVHSKGNTYLHWYLQKPGQSPKLLIYKVSNRFSGVPDRFSGSGSGTDFTLKISRVEAEDLGVYFCSQSTHVPFTFGSGTKLEIK ?
OUTPUT: 7.56
